This collection of values is drawn from patent US11345711B2.

# target: Wee1 (h) (Homo sapiens, UniProt P30291)
# Sequence (P30291 whole entry): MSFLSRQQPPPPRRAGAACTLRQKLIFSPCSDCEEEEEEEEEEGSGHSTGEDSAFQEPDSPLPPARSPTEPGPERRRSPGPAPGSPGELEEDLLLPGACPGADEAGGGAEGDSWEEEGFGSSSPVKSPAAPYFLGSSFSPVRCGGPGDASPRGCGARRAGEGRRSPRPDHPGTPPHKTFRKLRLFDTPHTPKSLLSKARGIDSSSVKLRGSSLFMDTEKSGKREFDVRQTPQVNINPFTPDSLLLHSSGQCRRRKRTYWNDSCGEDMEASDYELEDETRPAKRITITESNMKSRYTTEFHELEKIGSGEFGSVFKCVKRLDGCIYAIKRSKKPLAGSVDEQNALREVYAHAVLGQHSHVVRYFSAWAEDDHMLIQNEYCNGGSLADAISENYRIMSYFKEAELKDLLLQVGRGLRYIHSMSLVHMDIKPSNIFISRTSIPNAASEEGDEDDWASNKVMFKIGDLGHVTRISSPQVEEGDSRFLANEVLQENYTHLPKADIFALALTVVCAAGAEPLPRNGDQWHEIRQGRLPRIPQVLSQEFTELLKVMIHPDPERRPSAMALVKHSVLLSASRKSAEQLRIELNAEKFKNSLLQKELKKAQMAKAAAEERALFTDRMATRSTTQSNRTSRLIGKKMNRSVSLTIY
# test-summary: Wee1 kinase (h) detection method, [γ-33P]-ATP filter assay
# Type: biochemical
# condition-details: C 1 μm compound
readout-kind: Inh. (%) of Wee1 kinase enzyme activity

Suppose we examine the compound CN1CCc2c(Cl)cc(Nc3ncc4c(n3)N3CCN=C3N(c3c(Cl)cccc3Cl)C4=O)cc2C1 ; what Inh. (%) of Wee1 kinase enzyme activity value has been reported?
93%

Another compound to check: CN(C)C1CCN(c2c(Cl)cc(Nc3ncc4c(n3)N3CCN=C3N(c3c(Cl)cccc3Cl)C4=O)cc2Cl)CC1
95%

Another compound to check: CN1CCN(c2ccc(Nc3ncc4c(n3)N3CCN=C3N(c3ccc(F)cc3Cl)C4=O)cc2)CC1
75%

Another compound to look at: COc1cc(Nc2ncc3c(n2)N2CCN=C2N(c2c(F)cccc2Cl)C3=O)cc(C)c1N1CCN(C)CC1
93%

Please give the result for COc1cc(Nc2ncc3c(n2)N2CCN=C2N(c2c(F)cccc2Cl)C3=O)ccc1N1CCN(C)CC1 too.
81%

Please do the same for C[C@@H]1CN(c2ccc(Nc3ncc4c(n3)N3CCN=C3N(c3c(F)cccc3Cl)C4=O)cc2Cl)C[C@H](C)N1C as well.
98%

Record: CN1CCN(c2ccc(Nc3ncc4c(n3)N3CC(C)(C)N=C3N(c3c(F)cccc3Cl)C4=O)cc2)CC1
17%

----------
# Test system: NCI-H1299 cells
# test-summary: MTT based cell viability assay on NCI-H1299 cells
# condition-details: Homo sapiens, NCI-H1299, NCI-H1299 cells, read-out: IC50, growth inhibition of NCI-H1299 cells
readout-kind: IC50 (µM)
A number alone suffices; assume µM.

Recorded results for 6 compounds are shown here.
{"smiles-notation": "C[C@@H]1CN(c2c(Cl)cc(Nc3ncc4c(n3)N3CCN=C3N(c3c(Cl)cccc3Cl)C4=O)cc2Cl)C[C@H](C)N1C", "target": "NCI-H1299 cells", "IC50 [µM]": 0.31}
{"smiles-notation": "CN(C)CCNc1ccc(Nc2ncc3c(n2)N2CCN=C2N(c2c(F)cccc2Cl)C3=O)cc1", "target": "NCI-H1299 cells", "IC50 [µM]": 0.899}
{"smiles-notation": "Cc1cc(Nc2ncc3c(n2)N2CCN=C2N(c2c(Cl)cccc2Cl)C3=O)cc(F)c1N1CCN(C)CC1", "target": "NCI-H1299 cells", "IC50 [µM]": 0.123}
{"smiles-notation": "CN1CCN(c2ccc(Nc3ncc4c(n3)N3CCN=C3N(c3c(Cl)cccc3Cl)C4=O)cc2F)CC1", "target": "NCI-H1299 cells", "IC50 [µM]": 0.426}
{"smiles-notation": "Cc1cc(Nc2ncc3c(n2)N2CCN=C2N(c2c(Cl)cccc2Cl)C3=O)ccc1N1C[C@@H](C)N(C(C)C)[C@@H](C)C1", "target": "NCI-H1299 cells", "IC50 [µM]": 0.149}
{"smiles-notation": "CN1CCN(c2c(F)cc(Nc3ncc4c(n3)N3CCN=C3N(c3c(Cl)cccc3Cl)C4=O)cc2Br)CC1", "target": "NCI-H1299 cells", "IC50 [µM]": 0.174}

As a next step, examine the compound that follows.
Query for NCI-H1299 cells: what IC50 does the record show for CN1CCN(c2c(Cl)cc(Nc3ncc4c(n3)N3CCN=C3N(c3c(Cl)cccc3Cl)C4=O)cc2Br)CC1 ?
0.109
